- experimentDescription: Compound cytotoxicity on uninfected MRC5 cell monolayers
- Type: cell-based, human
- conditionSet: uninfected MRC5 cell monolayers (human embryonic lung cells); uninfected human embryonic lung cells (MRC5), 5 days incubation, estimated from microscopic examination; read-out: MRC5 tox CC50
Would you mind telling me the reported CC50 at 5 days of each entry?
One number for each entry, in µM.

// below: answered molecules
structureSmilesString | numericValue
CC(C)Nc1nc2cc(Cl)c(Cl)cc2n1[C@H]1O[C@@H](CCl)[C@H](O)[C@@H]1O | 30
CC(C)(C)Nc1nc2cc(Cl)c(Cl)cc2n1[C@H]1O[C@@H](CCl)[C@H](O)[C@@H]1O | 30
C[C@@H]1O[C@H](n2c(NC3CC3)nc3cc(Cl)c(Cl)cc32)[C@@H](O)[C@H]1O | 100

Record CC50 at 5 days per entry; entries follow.
1. CC(C)Nc1nc2cc(Cl)c(Cl)cc2n1[C@H]1O[C@@H](C)[C@H](O)[C@@H]1O
2. CC(C)Nc1nc2c(Cl)cc(Cl)cc2n1[C@H]1O[C@@H](CO)[C@H](O)[C@@H]1O

Data returned:
1. 30
2. 100

Record CC50 at 5 days per entry; entries follow.
1. CC(C)Nc1nc2cc(Cl)c(Cl)cc2n1[C@@H]1C[C@@H](O)[C@H](CO)O1
2. CC(C)Nc1nc2cc(Cl)c(Cl)cc2n1[C@H]1O[C@@H](CO)C[C@@H]1O

Data returned:
1: 100; 2: 100

---

propertyLabel: melting point

// below: answered molecules
structureSmilesString | result
CC(C)Nc1nc2cc(Cl)c(Cl)cc2n1[C@H]1O[C@@H](C)[C@H](O)[C@@H]1O | 103 to 105 °C
CC(C)Nc1nc2c(Cl)c(Cl)c(Cl)cc2n1[C@H]1O[C@@H](CO)[C@H](O)[C@@H]1O | 223 to 224 °C
C[C@@H]1O[C@H](n2c(Br)nc3cc(Cl)c(Cl)cc32)[C@@H](O)[C@H]1O | 136 to 138 °C
CC(C)Nc1nc2c(Br)c(Cl)c(Cl)cc2n1[C@H]1O[C@@H](CO)[C@H](O)[C@@H]1O | 221 to 222 °C
CC(C)Nc1nc2cc(Cl)c(Cl)cc2n1[C@H]1O[C@@H](CCl)[C@H](O)[C@@H]1O | 95 to 97 °C

Record melting point per entry; entries follow.
1. CC(C)Nc1nc2cc(Cl)c(Cl)cc2n1[C@H]1O[C@@H](CO)C[C@@H]1O
2. CC(C)(C)Nc1nc2cc(Cl)c(Cl)cc2n1[C@H]1O[C@@H](CCl)[C@H](O)[C@@H]1O

Data returned:
153 to 155 °C
112 to 114 °C

Record melting point per entry; entries follow.
1. CC(C)Nc1nc2cc(Cl)c(Cl)cc2n1[C@@H]1C[C@@H](O)[C@H](CO)O1
2. CC(C)Nc1nc2cc(F)c(F)cc2n1[C@H]1O[C@@H](CO)[C@H](O)[C@@H]1O

Data returned:
1. 114 to 115 °C
2. 156 to 158 °C

Record melting point per entry; entries follow.
1. C[C@@H]1O[C@H](n2c(NC3CC3)nc3cc(Cl)c(Cl)cc32)[C@@H](O)[C@H]1O
2. CC(C)Nc1nc2c(Cl)cc(Cl)cc2n1[C@H]1O[C@@H](CO)[C@H](O)[C@@H]1O
3. CC(C)Nc1nc2c(Cl)cccc2n1[C@H]1O[C@@H](CO)[C@H](O)[C@@H]1O

Data returned:
1: 186 to 187 °C; 2: 212 to 214 °C; 3: 225 to 227 °C
